# assayName: Analytical size exclusion chromatography (percent monomer)
# Assay type: physicochemical
# conditionInfo: NEM-conjugated cysteine variants; SEC, Abs280 monomer region 5.5-6 minutes vs oligomer region 4-5.3 minutes
Entries annotated with measured Percent monomer
readoutLabel: Percent monomer (%)

[[record]]
molecule = "P63C (conjugate, left off: small tags and cut ends) LPAPKNLVVSEVTEDSARLSWDDPWAFYESFLIQYQESEKVGEAIVLTVPGSERSYDLTGLKCGTEYTVSIYGVHNVYKDTNMRGLPLSAIFTT"
measurementunits = "%"
assayvalue = 92

[[record]]
molecule = "D15C: cysteine variant of P54AR4-83v2 (SEQ ID NOS: 193 and 231); NEM and VC-MMAF conjugates (conjugate, NEM or vcMMAF conjugate; EGFR binding FN3 domain, NEM and VC-MMAF conjugates) MLPAPKNLVVSEVTECSARLSWDDPWAFYESFLIQYQESEKVGEAIVLTVPGSERSYDLTGLKPGTEYTVSIYGVHNVYKDTNMRGLPLSAIFTT"
measurementunits = "%"
assayvalue = 97

[[record]]
molecule = "S55C (conjugate, left off: small tags and cut ends) LPAPKNLVVSEVTEDSARLSWDDPWAFYESFLIQYQESEKVGEAIVLTVPGSERCYDLTGLKPGTEYTVSIYGVHNVYKDTNMRGLPLSAIFTT"
measurementunits = "%"
assayvalue = 100

[[record]]
molecule = "D22C (conjugate, left off: small tags and cut ends) LPAPKNLVVSEVTEDSARLSWCDPWAFYESFLIQYQESEKVGEAIVLTVPGSERSYDLTGLKPGTEYTVSIYGVHNVYKDTNMRGLPLSAIFTT"
measurementunits = "%"
assayvalue = 85

[[record]]
molecule = "I45C: cysteine variant of P54AR4-83v2 (SEQ ID NOS: 201 and 239); NEM and VC-MMAF conjugates (conjugate, NEM or vcMMAF conjugate; EGFR binding FN3 domain, NEM and VC-MMAF conjugates) MLPAPKNLVVSEVTEDSARLSWDDPWAFYESFLIQYQESEKVGEACVLTVPGSERSYDLTGLKPGTEYTVSIYGVHNVYKDTNMRGLPLSAIFTT"
measurementunits = "%"
assayvalue = 97

[[record]]
molecule = "V74C: cysteine variant of P54AR4-83v2; NEM and VC-MMAF conjugates (conjugate, left off: small tags and cut ends, cysteine variant of P54AR4-83v2; NEM and VC-MMAF conjugates) LPAPKNLVVSEVTEDSARLSWDDPWAFYESFLIQYQESEKVGEAIVLTVPGSERSYDLTGLKPGTEYTVSIYGCHNVYKDTNMRGLPLSAIFTT"
measurementunits = "%"
assayvalue = 100


Cited source: patent US11702475B2
